target: P2X purinoceptor 3 (Rattus norvegicus); assay: Antagonist activity against rat P2X3 receptor expressed in CHOK1 cells assessed as inhibition of alpha,beta-meATP-induced calcium response incubated for 20 mins by Fluo-3AM dye based FLIPR assay; assay type: functional, cell-based; conditions: CHO-K1
Calls of active or inactive are those of the source. The rule behind the calls is not given here.
Measure name: antagonist activity call (active/inactive)

- Molecule: "Cc1ccc(-c2cc(C(=O)NC(C)CN(C)C)cc(-c3nccs3)c2)cc1 (stereo not drawn)"
  System name: "P2X purinoceptor 3 (Rattus norvegicus)"
  Result value: "Active"
- Molecule: "COCC(C)NC(=O)c1cc(-c2ccc(C)cc2)cc(-c2ccns2)c1 (stereo not drawn)"
  System name: "P2X purinoceptor 3 (Rattus norvegicus)"
  Result value: "Active"
- Molecule: "COCC(C)NC(=O)c1cc(-c2ccc(C)cc2)cc(-c2nc3ccccc3s2)c1 (stereo not drawn)"
  System name: "P2X purinoceptor 3 (Rattus norvegicus)"
  Result value: "Active"
